B1: SMG5 (parent)
chain: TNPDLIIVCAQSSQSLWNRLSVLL

Variants of: B1
ASSAY NAME: protein stability index of a GFP-peptide fusion (GPS, HEK-293T) (PSI 1-6); higher = more stable;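 also: lentivirally expressed fusions sorted by FACS into six bins by GFP to DsRed ratio, PSI derived from sequencing read proportions per bin multiplied by bin number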
MEASUREMENT PARAMETERS: c terminus: a fixed tail appended
# protein stability index per entry
VALUE TYPE: protein stability index

SEQUENCE INPUT | ENDPOINT VALUE
TNPDLIIVCAQISQSLWNRLSVLL [S12I] | 3.02
TNPDLIIVCAQSSQSLWNILSVLL [R19I] | 1.75
TNPDLIIVCAQSSQSLWNRLSVNL [L23N] | 3.27
TNPDLILVCAQSSQSLWNRLSVLL [I7L] | 3.84
TNPDLIIVCAQSSQSSWNRLSVLL [L16S] | 2.53
TNPDLIIVCPQSSQSLWNRLSVLL [A10P] | 4.01
TNPDLIIVCAQSSDSLWNRLSVLL [Q14D] | 3.38
TNPDLIIVCAQSTQSLWNRLSVLL [S13T] | 3.23
TNPDLIIVCAQSSQSLWNRLQVLL [S21Q] | 2.87
TNPDLIIVCAQSSQSLWGRLSVLL [N18G] | 2.69
TNRDLIIVCAQSSQSLWNRLSVLL [P3R] | 3.61
TTPDLIIVCAQSSQSLWNRLSVLL [N2T] | 4.22
TNPDLIIVCAQSSQSLWNRLRVLL [S21R] | 2
TNPDLIIVCAQSSQSLWNRLCVLL [S21C] | 2.21
TNPDLIIVCNQSSQSLWNRLSVLL [A10N] | 1.95
TNPDLIIVCAESSQSLWNRLSVLL [Q11E] | 1.32
TNPDLIIVCAQSSQSLWNRLSVGL [L23G] | 3.55
TNPDLIIVCAQSSQSCWNRLSVLL [L16C] | 2.91
TNPDLIIVCAQSCQSLWNRLSVLL [S13C] | 2.21
TNPDLIIVCAQSSQSLWNRPSVLL [L20P] | 2.92
TNPDQIIVCAQSSQSLWNRLSVLL [L5Q] | 1.73
TNPDLIIVCAGSSQSLWNRLSVLL [Q11G] | 2.09
TNPDLIIVCAQSSQSLWNRLSVLE [L24E] | 3.27
TNPDLIIVCAQSSQSPWNRLSVLL [L16P] | 3.37
TNPSLIIVCAQSSQSLWNRLSVLL [D4S] | 1.76
TNPDLIIVCAQSSQSLWNTLSVLL [R19T] | 3.21
TNPDLIIVCAQSFQSLWNRLSVLL [S13F] | 1.49
TNPDLIIVCAQSSVSLWNRLSVLL [Q14V] | 3.03
TNPDLIIVCAQSSQSLWNLLSVLL [R19L] | 1.57
TNPDLIIVCAQSSQSLWARLSVLL [N18A] | 3.11
TNPDLIIACAQSSQSLWNRLSVLL [V8A] | 1.43
TNPDLIIVCQQSSQSLWNRLSVLL [A10Q] | 2.4
TNPDLIIVCAQSSESLWNRLSVLL [Q14E] | 1.6
TNPDLIIVCAQSSQSLWNRLMVLL [S21M] | 1.58
TNPDLIIVCAQSSQSLWNRLKVLL [S21K] | 2.19
TNPDLIIVCAQGSQSLWNRLSVLL [S12G] | 2.1
TNPDLIIVCAQSSQSLWNRLFVLL [S21F] | 3.03
TNPDLIIVCAQSSQSLWNRLSVLG [L24G] | 2.84
TNPDLIIVCCQSSQSLWNRLSVLL [A10C] | 2.61
TNPDLIIVCAQSSQSLWNELSVLL [R19E] | 3.19
TNPDLITVCAQSSQSLWNRLSVLL [I7T] | 1.66
TNPDLIIVCAQSSQSLQNRLSVLL [W17Q] | 1.9
TNPDLIPVCAQSSQSLWNRLSVLL [I7P] | 2.41
TNPDLIIVCAQSSQSRWNRLSVLL [L16R] | 2.94
TNPDLIICCAQSSQSLWNRLSVLL [V8C] | 1.36
TNPDLIIVCAYSSQSLWNRLSVLL [Q11Y] | 4.08
